Test: NCI Yeast Anticancer Drug Screen. Data for the rad50 strain (AID 155);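 note: 0% = growth of vehicle-only cultures of the same strain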
Conditions: S. cerevisiae rad50 strain growth inhibition; at 50.0 µM; stronger effect = higher value
About 79,000 compounds went through this panel and 15% of them were active in at least one assay; those are over-represented in the sample as a whole.
Reported growth inhibition values are given for each entry in this list.

MOLECULE	growth inhibition [%]
CC1(C)OC(=O)C(C(N)=O)C1c1ccc(Cl)cc1 (configuration not stated)	6.15
COc1cc(N)c2c(c1)SC(c1ccccc1)C(=O)N2 (configuration not stated)	-23.6
[Cl][Tb]([Cl])[Cl]	16.4
O=C(O)C=C(CBr)CBr	11.5
COc1ccc(NC(=O)N(C)Cc2ccccc2Cl)cc1	-0.35
O=C1C2C3C=CC(O3)C2C(=O)N1N=C1CCCCC1 (configuration not stated)	10.4
O=c1cc(-c2ccccc2)oc2c(N=Nc3ccccc3)ccc(O)c12	33.8
O=C(Cc1ccccc1)NNC(=O)Nc1ccccc1	4
COc1ccccc1/C=C(\S)C(=O)O	-18.9
FC(F)(F)c1cccc(NC(=S)SCc2ccc(Cl)c(Cl)c2)c1	98.3
N/C(=N\N=C\c1ccccn1)NO	1.05
Cc1cc(NC(=O)C(=O)CC(=O)c2ccc(Cl)s2)no1	-51.3
CCN(CC)c1cc2oc(=O)cc(C)c2cc1NC(=O)c1cc([N+](=O)[O-])cc([N+](=O)[O-])c1	-0.6
O=C(Nc1ccccc1CCl)Nc1ccccc1CCl	-30.9
CCCC(=O)OCC(C)(C)CC(C)C	-9.55
O=C(Cc1ccccc1)NC(=O)Nc1ccccc1	-7.5
CCCCC1NC(=O)OC1=O (configuration not stated)	-23.6
C[Si](C)(C)CCCO	0.25
O=C1OC2C(Cl)C3CC1C2C3 (configuration not stated)	-12.2
NC(Cc1ccc(OC(c2ccccc2)(c2ccccc2)c2ccccc2)cc1)C(=O)O (configuration not stated)	-23.6
COc1ccc(/C=N/NC(=O)c2ccccc2OC)cc1	1.85
CS(=O)(=O)OC12CC3CC(CC(C3)C1)C2	7.3
COc1ccc(C(O)c2cc(C(F)(F)F)cc(C(F)(F)F)c2)cc1OC (configuration not stated)	9.2
O=c1c2c(oc3cc(OCC4CO4)ccc13)CCC2 (configuration not stated)	-0.4
O=C(O)/C=C(\CC(=O)O)C(=O)O	12.8
COc1cc2c(c3c1CCC(C)(C)O3)Cc1c(cc(OC)c(OC)c1CCC(C)(C)O)O2	41.8
CC[N+](C)(CC)CCOC(=O)C(c1ccccc1)C(O)C1CCCC1 (configuration not stated)	-6.85
